- System: Staphylococcus aureus
- Assay Setup: Concentration 20 uM; ASSAY_TEST Inhibition of Bacterial Growth; detection method Absorption (OD600); MEDIA CAMHB; plate type 384well; NBS; CORNING #3640; time 18 hr
Potency and affinity values are given separately. Square brackets hold non-standard residues; d marks the D form. Peptide text beside a SMILES is read from it. pGlu = O=C1CC[C@@H](C(=O)O)N1; Thz = O=C(O)[C@@H]1CSCN1
Readout Type: Inhibition

{"columns": ["Compound", "Measured Target", "Value Observed"],
 "data": [
  ["CCOc1cc(N)c(Cl)cc1C(=O)NCC1CN(Cc2ccc(F)cc2)CCO1.O=C(O)CC(O)(CC(=O)O)C(=O)O (centres undefined) [MOSAPRIDE CITRATE]", "Staphylococcus aureus", "10.04%"],
  ["O=C1CC[C@@H](C(=O)N2CSC[C@H]2C(=O)O)N1 [PIDOTIMOD] ([pGlu]-[Thz]-OH)", "Staphylococcus aureus", "9.9%"],
  ["Cl.Clc1ccccc1CN1CCc2sccc2C1 [TICLOPIDINE HYDROCHLORIDE]", "Staphylococcus aureus", "6.77%"],
  ["Cl.Cn1c(NCCN(CCO)CCCc2ccc([N+](=O)[O-])cc2)cc(=O)n(C)c1=O", "Staphylococcus aureus", "-11.53%"]
]}

These data points were gathered from ChEMBL document CHEMBL4513141.
